# Tested on: SW-620 colon
# EXPERIMENT_NOTES: NCI tumour cell line growth inhibition, 48 h
READOUT_NAME: GI50

For orientation, consider the following solved cases.
[
  {
    "COMPOUND": "NCCOCCOCCNc1nc(Cc2ccccc2)nc(NCCCN2CCCC2=O)n1",
    "GI50": "> 100 µM"
  },
  {
    "COMPOUND": "COc1ccc2nc(-c3ccc(-c4noc(-c5cc(OC)c(OC)c(OC)c5)n4)cc3)[nH]c2c1",
    "GI50": "5.89 µM"
  }
]

Query block: For SW-620 colon, give GI50 of the listed compound: `CCCCCCCCN=C(N)c1ccc(N2CCN(c3ccc(C(N)=NCCCCCCCC)cc3)CC2)cc1`
Result block: 1.76 µM

Query block: Answer with GI50 of `Cn1cc(-c2ccc3occ(-c4cccc(-c5ccncc5)c4)c3n2)cn1` measured for SW-620 colon.
Result block: 0.435 µM
